Biological target: human Nav1.7 channels (Homo sapiens)
Construct: host or cells: HEK293
Assay: hNav1.7 channel assay, whole cell patch clamp, two-pulse protocol
Type: cell-based
Settings: TP2 (inactivated phase inhibition), HEK293 cells stably expressing human Nav1.7, read-out: Inhibition activity: percent inhibition on the inactivated state of hNav1.7
metric-name: inhibition at 10 µM

Field: example entries. Status: answers known.
Checklist item: inhibition at 10 µM tested on human Nav1.7 channels (Homo sapiens), entry "Cc1cccc(-c2cccc(C(=O)NCc3cccc[n+]3[O-])c2)c1" , value? 40 to 70%

Checklist item: inhibition at 10 µM tested on human Nav1.7 channels (Homo sapiens), entry "O=C(NCc1cccc[n+]1[O-])c1cccc(-c2ccc(C(F)(F)F)c(F)c2)c1" , value? 40 to 70%

Checklist item: inhibition at 10 µM tested on human Nav1.7 channels (Homo sapiens), entry "O=C(NCc1cccc[n+]1[O-])c1cccc(-c2ccc(C(F)(F)F)cc2F)c1" , value? 40 to 70%

Checklist item: inhibition at 10 µM tested on human Nav1.7 channels (Homo sapiens), entry "CC(C)c1ccc(-c2cccc(C(=O)NCc3cccc[n+]3[O-])c2)cc1" , value? 10 to 40%

---
Checklist item: inhibition at 10 µM tested on human Nav1.7 channels (Homo sapiens), entry "O=C(NCc1cccc[n+]1[O-])c1cccc(-c2cccc(F)c2F)c1" , value? 10 to 40%

Checklist item: inhibition at 10 µM tested on human Nav1.7 channels (Homo sapiens), entry "O=C(NCc1cccc[n+]1[O-])c1cccc(-c2ccc(Cl)c(Cl)c2)c1" , value? 70 to 100%

Checklist item: inhibition at 10 µM tested on human Nav1.7 channels (Homo sapiens), entry "O=C(NCc1cccc[n+]1[O-])c1cc(-c2ccc(C(F)(F)F)cc2)ccc1F" , value? 70 to 100%

Checklist item: inhibition at 10 µM tested on human Nav1.7 channels (Homo sapiens), entry "O=C(NCc1cccc[n+]1[O-])c1cc(-c2cccc(Cl)c2)ccc1F" , value? 70 to 100%

Checklist item: inhibition at 10 µM tested on human Nav1.7 channels (Homo sapiens), entry "O=C(NCc1cccc[n+]1[O-])c1cccc(-c2ccc(F)c(F)c2)c1" , value? 40 to 70%

Checklist item: inhibition at 10 µM tested on human Nav1.7 channels (Homo sapiens), entry "O=C(NCc1cccc[n+]1[O-])c1cccc(-c2ccc(F)cc2)c1" , value? 40 to 70%

Checklist item: inhibition at 10 µM tested on human Nav1.7 channels (Homo sapiens), entry "O=C(NCc1cccc[n+]1[O-])c1cccc(-c2ccc(C(F)(F)F)cc2C(F)(F)F)c1" , value? 70 to 100%

Checklist item: inhibition at 10 µM tested on human Nav1.7 channels (Homo sapiens), entry "O=C(NCc1cccc[n+]1[O-])c1cccc(-c2ccccc2Cl)c1" , value? 40 to 70%

Checklist item: inhibition at 10 µM tested on human Nav1.7 channels (Homo sapiens), entry "O=C(NCc1cccc[n+]1[O-])c1cccc(-c2cc(F)cc(Cl)c2)c1" , value? 70 to 100%

Checklist item: inhibition at 10 µM tested on human Nav1.7 channels (Homo sapiens), entry "O=C(NCc1cccc[n+]1[O-])c1cccc(-c2cc(F)cc(C(F)(F)F)c2)c1" , value? 10 to 40%

Checklist item: inhibition at 10 µM tested on human Nav1.7 channels (Homo sapiens), entry "O=C(NCc1cccc[n+]1[O-])c1cccc(-c2cc(Cl)cc(Cl)c2)c1" , value? 40 to 70%

Checklist item: inhibition at 10 µM tested on human Nav1.7 channels (Homo sapiens), entry "O=C(NCc1ccc(F)c[n+]1[O-])c1cccc(-c2ccc(Cl)cc2)c1" , value? 70 to 100%

Checklist item: inhibition at 10 µM tested on human Nav1.7 channels (Homo sapiens), entry "O=C(NCc1cccc[n+]1[O-])c1cccc(-c2ccccc2F)c1" , value? 70 to 100%

Checklist item: inhibition at 10 µM tested on human Nav1.7 channels (Homo sapiens), entry "O=C(NCc1cccc[n+]1[O-])c1cc(-c2ccc(F)c(F)c2)ccc1F" , value? 70 to 100%

Checklist item: inhibition at 10 µM tested on human Nav1.7 channels (Homo sapiens), entry "COc1cc(Cl)ccc1-c1ccc(F)c(C(=O)NCc2cccc[n+]2[O-])c1" , value? 70 to 100%

----------
Target: human Nav1.7 channels (Homo sapiens, UniProt Q15858)
Construct: host or cells: HEK293
Sequence (Q15858 whole entry): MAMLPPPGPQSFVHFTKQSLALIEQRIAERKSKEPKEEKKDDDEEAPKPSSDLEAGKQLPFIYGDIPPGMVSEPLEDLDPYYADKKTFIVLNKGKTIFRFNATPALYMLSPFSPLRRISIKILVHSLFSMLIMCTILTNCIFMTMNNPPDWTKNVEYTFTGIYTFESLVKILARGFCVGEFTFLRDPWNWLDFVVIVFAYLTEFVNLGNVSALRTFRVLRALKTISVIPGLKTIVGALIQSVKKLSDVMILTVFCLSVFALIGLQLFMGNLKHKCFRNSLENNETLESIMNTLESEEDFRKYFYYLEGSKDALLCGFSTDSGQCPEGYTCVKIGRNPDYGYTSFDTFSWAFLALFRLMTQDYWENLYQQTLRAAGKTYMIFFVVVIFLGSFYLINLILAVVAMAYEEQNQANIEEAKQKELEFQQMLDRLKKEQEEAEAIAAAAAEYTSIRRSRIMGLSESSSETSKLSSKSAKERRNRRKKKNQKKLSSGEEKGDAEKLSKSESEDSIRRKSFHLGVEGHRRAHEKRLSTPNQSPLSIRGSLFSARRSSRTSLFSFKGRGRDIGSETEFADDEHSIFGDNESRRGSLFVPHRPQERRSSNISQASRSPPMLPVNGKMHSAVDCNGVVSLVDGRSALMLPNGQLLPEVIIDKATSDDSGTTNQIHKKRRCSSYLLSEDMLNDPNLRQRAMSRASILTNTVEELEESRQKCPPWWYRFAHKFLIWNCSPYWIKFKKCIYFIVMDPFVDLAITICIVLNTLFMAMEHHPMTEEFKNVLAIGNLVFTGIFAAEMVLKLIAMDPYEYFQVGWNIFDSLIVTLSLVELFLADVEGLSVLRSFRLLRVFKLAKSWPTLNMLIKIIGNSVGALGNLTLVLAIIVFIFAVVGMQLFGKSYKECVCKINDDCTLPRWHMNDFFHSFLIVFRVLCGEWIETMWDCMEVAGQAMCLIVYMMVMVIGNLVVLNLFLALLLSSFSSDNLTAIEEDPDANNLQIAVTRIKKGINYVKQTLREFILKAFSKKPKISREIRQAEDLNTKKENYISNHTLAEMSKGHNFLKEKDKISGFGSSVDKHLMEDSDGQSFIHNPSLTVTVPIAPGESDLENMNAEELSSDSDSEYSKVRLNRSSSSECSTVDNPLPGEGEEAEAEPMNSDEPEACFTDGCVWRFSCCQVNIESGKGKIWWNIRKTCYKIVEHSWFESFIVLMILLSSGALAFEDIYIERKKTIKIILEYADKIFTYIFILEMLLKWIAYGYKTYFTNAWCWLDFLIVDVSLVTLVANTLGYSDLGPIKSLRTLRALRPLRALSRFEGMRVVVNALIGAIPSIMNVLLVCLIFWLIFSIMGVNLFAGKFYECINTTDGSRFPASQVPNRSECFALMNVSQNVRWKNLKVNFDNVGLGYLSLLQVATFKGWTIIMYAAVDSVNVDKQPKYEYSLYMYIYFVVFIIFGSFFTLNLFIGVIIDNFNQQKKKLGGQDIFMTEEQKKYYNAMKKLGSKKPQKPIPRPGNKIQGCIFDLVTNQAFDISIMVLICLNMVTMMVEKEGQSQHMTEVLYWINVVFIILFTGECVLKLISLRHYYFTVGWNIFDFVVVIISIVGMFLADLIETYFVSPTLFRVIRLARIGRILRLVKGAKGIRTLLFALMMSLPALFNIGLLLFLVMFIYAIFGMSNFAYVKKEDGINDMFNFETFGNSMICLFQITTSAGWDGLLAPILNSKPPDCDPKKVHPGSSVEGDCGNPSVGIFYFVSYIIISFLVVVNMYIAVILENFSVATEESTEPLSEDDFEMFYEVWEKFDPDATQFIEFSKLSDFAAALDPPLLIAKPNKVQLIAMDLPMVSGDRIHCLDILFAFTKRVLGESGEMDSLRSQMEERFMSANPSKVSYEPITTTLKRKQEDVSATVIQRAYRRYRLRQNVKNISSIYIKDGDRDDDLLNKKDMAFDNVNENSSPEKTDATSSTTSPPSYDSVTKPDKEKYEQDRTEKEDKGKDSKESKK
Assay: hNav1.7 channel assay, whole cell patch clamp, two-pulse protocol
Type: cell-based
Details: TP2 (inactivated phase inhibition), HEK293 cells stably expressing human Nav1.7, read-out: Inhibition activity: percent inhibition on the inactivated state of hNav1.7
metric-name: inhibition at 10 µM

Field: example entries. Status: answers known.
Name the reported inhibition at 10 µM value associated with the molecule Cc1cc(-c2cccc(C(=O)NCc3cccc[n+]3[O-])c2)ccc1C(F)(F)F [Example 43] 70 to 100%

Name the reported inhibition at 10 µM value associated with the molecule COc1cc(OC(F)(F)F)ccc1-c1ccc(F)c(C(=O)NCc2cccc[n+]2[O-])c1 [Example 56] 70 to 100%

Name the reported inhibition at 10 µM value associated with the molecule COc1ccc(-c2cccc(C(=O)NCc3cccc[n+]3[O-])c2)c(C(F)(F)F)c1 [Example 50] 40 to 70%

---
Name the reported inhibition at 10 µM value associated with the molecule O=C(NCc1cccc[n+]1[O-])c1cc(-c2ccc(Cl)cc2)ccc1Cl [Example 62] 70 to 100%

Name the reported inhibition at 10 µM value associated with the molecule COc1cc(-c2cccc(C(=O)NCc3cccc[n+]3[O-])c2)cc(C(F)(F)F)c1 [Example 45] 10 to 40%

Name the reported inhibition at 10 µM value associated with the molecule O=C(NCc1cccc[n+]1[O-])c1cccc(-c2ccc(OC(F)(F)F)cc2)c1 [Example 3] 70 to 100%

Name the reported inhibition at 10 µM value associated with the molecule Cc1cc(Cl)ccc1-c1cccc(C(=O)NCc2cccc[n+]2[O-])c1 [Example 15] 40 to 70%

Name the reported inhibition at 10 µM value associated with the molecule Cc1cc(-c2cccc(C(=O)NCc3cccc[n+]3[O-])c2)ccc1F [Example 22] 40 to 70%

Name the reported inhibition at 10 µM value associated with the molecule O=C(NCc1cccc[n+]1[O-])c1cc(-c2ccc(C(F)(F)F)c(F)c2)ccc1F [Example 60] 70 to 100%

Name the reported inhibition at 10 µM value associated with the molecule O=C(NCc1cccc[n+]1[O-])c1cccc(-c2ccc(Cl)c(F)c2)c1 [Example 30] 40 to 70%

Name the reported inhibition at 10 µM value associated with the molecule COc1cc(Cl)ccc1-c1cccc(C(=O)NCc2cccc[n+]2[O-])c1 [Example 26] 10 to 40%

Name the reported inhibition at 10 µM value associated with the molecule CC(C)c1cccc(-c2cccc(C(=O)NCc3cccc[n+]3[O-])c2)c1 [Example 35] 70 to 100%

Name the reported inhibition at 10 µM value associated with the molecule O=C(NCc1cccc[n+]1[O-])c1cc(-c2ccc(OC(F)(F)F)cc2)ccc1F [Example 58] 70 to 100%

Name the reported inhibition at 10 µM value associated with the molecule O=C(NCc1cccc[n+]1[O-])c1cc(-c2ccc(Cl)cc2C(F)(F)F)ccc1F [Example 55] 40 to 70%

Name the reported inhibition at 10 µM value associated with the molecule CC(C)(C)c1ccc(-c2cccc(C(=O)NCc3cccc[n+]3[O-])c2)cc1 [Example 13] 40 to 70%

Name the reported inhibition at 10 µM value associated with the molecule Cc1ccc(-c2cccc(C(=O)NCc3cccc[n+]3[O-])c2)cc1 [Example 14] 40 to 70%

Name the reported inhibition at 10 µM value associated with the molecule O=C(NCc1cccc[n+]1[O-])c1cccc(-c2ccc(C(F)(F)F)cc2)c1 [Example 1] 70 to 100%

----------
This listing pairs compounds with measured inhibition at 10 µM.
Target: human Nav1.7 channels (Homo sapiens, UniProt Q15858)
Construct: host or cells: HEK293
Assay: hNav1.7 channel assay, whole cell patch clamp, two-pulse protocol
Type: cell-based
Settings: TP2 (inactivated phase inhibition), HEK293 cells stably expressing human Nav1.7, read-out: Inhibition activity: percent inhibition on the inactivated state of hNav1.7

Name the reported inhibition at 10 µM value associated with the compound "O=C(NCc1cccc[n+]1[O-])c1cccc(-c2cc(Cl)ccc2Cl)c1" 40 to 70%

Name the reported inhibition at 10 µM value associated with the compound "Cc1cc(C(F)(F)F)ccc1-c1cccc(C(=O)NCc2cccc[n+]2[O-])c1" 40 to 70%

Name the reported inhibition at 10 µM value associated with the compound "COc1cc(-c2cccc(C(=O)NCc3cccc[n+]3[O-])c2)ccc1Cl" 40 to 70%

Name the reported inhibition at 10 µM value associated with the compound "O=C(NCc1cccc[n+]1[O-])c1cc(-c2ccc(Cl)cc2)ccc1F" 70 to 100%

Name the reported inhibition at 10 µM value associated with the compound "COc1cc(F)c(F)cc1-c1cccc(C(=O)NCc2cccc[n+]2[O-])c1" 10 to 40%

Name the reported inhibition at 10 µM value associated with the compound "O=C(NCc1cccc[n+]1[O-])c1cccc(-c2ccccc2)c1" 40 to 70%

Name the reported inhibition at 10 µM value associated with the compound "COc1cc(-c2ccc(F)c(C(=O)NCc3cccc[n+]3[O-])c2)ccc1C(F)(F)F" 70 to 100%
